- Test system: DQ3.1
- Conditions: read-out: Capacity to bind purified DQ3.1, IC50
Endpoint Name: IC50 (nM)

INSERT INTO assay_data (substance, assay_value) VALUES
  ('aKFVAAWTLKAAa [Peptide 1024.03]', 23);

###

Parameter IC50: see the listing below.
- System: DR5
- Conditions: read-out: PADRE Class II Binding Affinities DR5; Table VIII A
Non-standard residues stand in square brackets, D forms with d. Residues, ends and D or L forms follow the SMILES beside them. Cha = N[C@@H](CC1CCCCC1)C(=O)O
Endpoint Name: IC50 (nM)

INSERT INTO assay_data (compound, test_system, assay_value) VALUES
  ('C[C@H](NC(=O)[C@H](C)NC(=O)[C@H](C)NC(=O)[C@H](CC1CCCCC1)NC(=O)[C@H](C)NC(=O)[C@@H](C)N)C(=O)N[C@@H](C)C(=O)N[C@H](C(=O)N[C@@H](CCC(N)=O)C(=O)N[C@@H](CCCCN)C(=O)N[C@@H](C)C(=O)N[C@@H](C)C(=O)N[C@H](C)C(N)=O)[C@@H](C)O [Peptide 906.31]', 'DR5', 11.8),
  ('CC(C)C[C@H](NC(=O)[C@@H](NC(=O)[C@H](CCC(=O)O)NC(=O)[C@H](C)NC(=O)[C@H](C)NC(=O)[C@H](C)NC(=O)[C@H](CC1CCCCC1)NC(=O)[C@H](C)NC(=O)[C@@H](C)N)[C@@H](C)O)C(=O)N[C@@H](CCCCN)C(=O)N[C@@H](C)C(=O)N[C@@H](C)C(=O)N[C@H](C)C(N)=O [Peptide 906.24]', 'DR5', 11.1),
  ('CC(C)C[C@H](NC(=O)[C@@H](NC(=O)[C@H](C)NC(=O)[C@H](C)NC(=O)[C@H](C)NC(=O)[C@H](C)NC(=O)[C@H](CC1CCCCC1)NC(=O)[C@H](C)NC(=O)[C@@H](C)N)[C@@H](C)O)C(=O)N[C@@H](CCCCN)C(=O)N[C@@H](Cc1ccccc1)C(=O)N[C@@H](C)C(=O)N[C@H](C)C(N)=O [Peptide 906.44] (H-[dA]A[Cha]AAAATLKFA[dA]-NH2; N-terminus and C-terminus assumed)', 'DR5', 104);

Recorded values, source patent US6413935B1.
